Biological target: T1, human TfR apical domain (human)
T1 chain: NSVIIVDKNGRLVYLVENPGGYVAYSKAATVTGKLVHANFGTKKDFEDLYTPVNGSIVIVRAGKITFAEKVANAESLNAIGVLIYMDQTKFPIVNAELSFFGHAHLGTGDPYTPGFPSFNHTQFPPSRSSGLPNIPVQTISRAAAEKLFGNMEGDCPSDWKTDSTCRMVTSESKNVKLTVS
Test: SPR
// values below are reported Kd
readout: Kd (µM)

>>> result("35.d1.19 (protein) ASTKGPSVFPLAPSSKSTSGGTAALGCLVKDYFPEPVTVSWNSGALTSGVHTFPAVLQSSGLYSLSSVVTVPSSSLGTQTYICNVNHKPSNTKVDKKVEPKSCDKTHTCPPCPAPELLGGPSVFLFPPKPKDTLMISRTPEVTCVVVDVSHEDPEVKFNWYVDGVEVHNAKTKPREEQYNSTYRVVSVLTVLHQDWLNGKEYKCKVSNKALPAPIEKTISKAKGQPREPQVYTLPPSRDELTKNQVSLTCLVKGFYPSDIAVEWESFGTEWVNYKTTPPVLDSDGSFFLYSKLTVSKSEWQQGYVFSCSVMHEALHNHYTQKSLSLSPELQLEESCAEAQDGELDGLWTT")
16
>>> result("35.d1.23 (protein) ASTKGPSVFPLAPSSKSTSGGTAALGCLVKDYFPEPVTVSWNSGALTSGVHTFPAVLQSSGLYSLSSVVTVPSSSLGTQTYICNVNHKPSNTKVDKKVEPKSCDKTHTCPPCPAPELLGGPSVFLFPPKPKDTLMISRTPEVTCVVVDVSHEDPEVKFNWYVDGVEVHNAKTKPREEQYNSTYRVVSVLTVLHQDWLNGKEYKCKVSNKALPAPIEKTISKAKGQPREPQVYTLPPSRDELTKNQVSLTCLVKGFYPSDIAVEWESYGTEWTNYKTTPPVLDSDGSFFLYSKLTVSKEEWQQGFVFSCSVMHEALHNHYTQKSLSLSPELQLEESCAEAQDGELDGLWTT")
3.5
